Tested on: Saccharomyces cerevisiae
Experiment: protein stability index of tFT-peptide fusion (C-terminal peptide) (PSI (0-1 scale)); higher = more stable (slower turnover)
Recorded conditions: genetic background: wild type; temperature: 30 C
Please provide measured protein stability index for the entries that follow.
The reply should be a number, written without any unit.

The sequence identified as `KDTGTNKASRGQ` registered its protein stability index at 0.67

The sequence identified as `GGSIGTELAAVI` registered its protein stability index at 0.682

The sequence identified as `TGVCKGMRWRGV` registered its protein stability index at 0.683

The sequence identified as `PPSPPLPPPSPF` registered its protein stability index at 0.34

The sequence identified as `SPPPAPPRSGPL` registered its protein stability index at 0.651

The sequence identified as `GCLVVVGFFSVF` registered its protein stability index at 0.326

The sequence identified as `GEVSSIVHIGPK` registered its protein stability index at 0.684

The sequence identified as `LGCKGQLFWYIW` registered its protein stability index at 0.633

The sequence identified as `MFGCGSRGSGVV` registered its protein stability index at 0.695

The sequence identified as `PWVLSLASGSPS` registered its protein stability index at 0.687

The sequence identified as `PPAPPPCTPPPP` registered its protein stability index at 0.695

The sequence identified as `LKLTFPFWNTGT` registered its protein stability index at 0.728

The sequence identified as `GVVSSHVDMIGL` registered its protein stability index at 0.668

The sequence identified as `EFFSDLLEMIRL` registered its protein stability index at 0.725

The sequence identified as `VHSGKGRQAKER` registered its protein stability index at 0.715

The sequence identified as `PFVGSSPFPLCL` registered its protein stability index at 0.645

The sequence identified as `LYPVPLSPPPAD` registered its protein stability index at 0.676

The sequence identified as `TGRGSMSNVRVK` registered its protein stability index at 0.706

The sequence identified as `CASSFSFFRFPP` registered its protein stability index at 0.586

The sequence identified as `GRDSECCSGGGG` registered its protein stability index at 0.683

The sequence identified as `NIYDFQPPVSGH` registered its protein stability index at 0.77

The sequence identified as `SLATFRTLLPES` registered its protein stability index at 0.667

The sequence identified as `PPRCHPPPPFPP` registered its protein stability index at 0.647

The sequence identified as `SPRLPPSTHSPP` registered its protein stability index at 0.677

The sequence identified as `TGGRRKNCIIKK` registered its protein stability index at 0.688

The sequence identified as `KAKKNNERAKHR` registered its protein stability index at 0.681

The sequence identified as `LLSLSGVLLVPP` registered its protein stability index at 0.656

The sequence identified as `PHDPHNTATNQG` registered its protein stability index at 0.721

The sequence identified as `ICFGCLSWAGSW` registered its protein stability index at 0.554

The sequence identified as `RDPPLLQPTTSS` registered its protein stability index at 0.648

The sequence identified as `GALFRRACSLLF` registered its protein stability index at 0.697

The sequence identified as `LFPIYFVCNYSA` registered its protein stability index at 0.508

The sequence identified as `GTACIIVSGYGL` registered its protein stability index at 0.643

The sequence identified as `TWRWVGGRWSGL` registered its protein stability index at 0.56

The sequence identified as `SPPICLPLFRVR` registered its protein stability index at 0.65

The sequence identified as `PLPRTPTLPTPE` registered its protein stability index at 0.635

The sequence identified as `VVGWGWGGVVRR` registered its protein stability index at 0.763

The sequence identified as `RTGLLLLVQDFR` registered its protein stability index at 0.703

The sequence identified as `SLRRLSPLPLAS` registered its protein stability index at 0.7

The sequence identified as `HVPGKWTLGFGI` registered its protein stability index at 0.761

The sequence identified as `AFVLTSRVFFPL` registered its protein stability index at 0.721

The sequence identified as `KLLRPMVLPQRT` registered its protein stability index at 0.615

The sequence identified as `LSELCFAPRSPE` registered its protein stability index at 0.706

The sequence identified as `ATPTQADRMPVT` registered its protein stability index at 0.721

The sequence identified as `KRITLNADIIIK` registered its protein stability index at 0.629

The sequence identified as `ISQNPYNGTGQE` registered its protein stability index at 0.689

The sequence identified as `WRVVTPPSVDHR` registered its protein stability index at 0.677

The sequence identified as `LVFLGLCGTDFV` registered its protein stability index at 0.676

The sequence identified as `CLGSGGRVSRGA` registered its protein stability index at 0.671

The sequence identified as `LIPFPGFFILLT` registered its protein stability index at 0.436

The sequence identified as `TFRHLRPPLRSR` registered its protein stability index at 0.649

The sequence identified as `CIIAVMISIVSF` registered its protein stability index at 0.0807

The sequence identified as `QQATLYCTTVRK` registered its protein stability index at 0.682

The sequence identified as `VPYLPPHLPLPP` registered its protein stability index at 0.71

The sequence identified as `CLAGALSWLRRG` registered its protein stability index at 0.732

The sequence identified as `ALASLPPQPHSP` registered its protein stability index at 0.665

The sequence identified as `FCALWLCFRLMV` registered its protein stability index at 0.174

The sequence identified as `EDKVRGQGSRHN` registered its protein stability index at 0.722

The sequence identified as `LESEDDRKLSLL` registered its protein stability index at 0.659

The sequence identified as `DRYSFYGYVVVL` registered its protein stability index at 0.261

The sequence identified as `SLLHSIPSSPPF` registered its protein stability index at 0.729

The sequence identified as `GACRVSSCVVVC` registered its protein stability index at 0.448

The sequence identified as `WRRLVGGVAWLW` registered its protein stability index at 0.726

The sequence identified as `CIGVRFVNAHEG` registered its protein stability index at 0.771

* * *

Tested on: Saccharomyces cerevisiae
Experiment: protein stability index of tFT-peptide fusion (C-terminal peptide) (PSI (0-1 scale)); higher = more stable (slower turnover)
Recorded conditions: genetic background: das1 deletion; temperature: 30 C
Measure name: protein stability index
The reply should be a number, written without any unit.

The sequence identified as GECVLTKNNKFT [ATG21 C-terminal 12 aa] registered its protein stability index at 0.672

The sequence identified as KGTFLANLTDLI [SWF1 C-terminal 12 aa] registered its protein stability index at 0.735

The sequence identified as ALKHGEKAFNIN [NEM1 C-terminal 12 aa] registered its protein stability index at 0.678

The sequence identified as HEKPHTVSLRHK [CPR4 C-terminal 12 aa] registered its protein stability index at 0.717

* * *

System: Saccharomyces cerevisiae
Experiment: protein stability index of tFT-peptide fusion (C-terminal peptide) (PSI (0-1 scale)); higher = more stable (slower turnover)
Recorded conditions: genetic background: wild type; temperature: 30 C
Measure name: protein stability index

The sequence identified as `PVVFAGLLLHGH` registered its protein stability index at 0.694

The sequence identified as `SSWGARSGRRPS` registered its protein stability index at 0.699

The sequence identified as `ENRNKSYEISRP` registered its protein stability index at 0.702

The sequence identified as `HVTLGRGGVGPN` registered its protein stability index at 0.681

The sequence identified as `AVAFELCDLTRG` registered its protein stability index at 0.702

* * *

Test system: Saccharomyces cerevisiae
Experiment: protein stability index of tFT-peptide fusion (C-terminal peptide) (PSI (0-1 scale)); higher = more stable (slower turnover)
Recorded conditions: genetic background: wild type; temperature: 30 C
Measure name: protein stability index
The reply should be a number, written without any unit.

With Saccharomyces cerevisiae as the test system, `PRPGSTTPPAYR` showed protein stability index of 0.716

With Saccharomyces cerevisiae as the test system, `PPLSPPLPPPPS` showed protein stability index of 0.719

With Saccharomyces cerevisiae as the test system, `HPVPSPSLRPPP` showed protein stability index of 0.716

With Saccharomyces cerevisiae as the test system, `PLSLRLCYLPWY` showed protein stability index of 0.701

With Saccharomyces cerevisiae as the test system, `RLHPPRPLTPPL` showed protein stability index of 0.683

With Saccharomyces cerevisiae as the test system, `WRCAGVGGVGGG` showed protein stability index of 0.708

With Saccharomyces cerevisiae as the test system, `PSPPFLPPPVPL` showed protein stability index of 0.685

With Saccharomyces cerevisiae as the test system, `PPLTHPPPPLYL` showed protein stability index of 0.694

With Saccharomyces cerevisiae as the test system, `EKKKNKTKKKTN` showed protein stability index of 0.688

With Saccharomyces cerevisiae as the test system, `LFLARLSGHFGA` showed protein stability index of 0.728

With Saccharomyces cerevisiae as the test system, `SVLVTRILKFFL` showed protein stability index of 0.558

With Saccharomyces cerevisiae as the test system, `FVEIRGGGDRRM` showed protein stability index of 0.706

With Saccharomyces cerevisiae as the test system, `GCFYYWSVNVSY` showed protein stability index of 0.56

With Saccharomyces cerevisiae as the test system, `WGFVCWGCGGCS` showed protein stability index of 0.746

With Saccharomyces cerevisiae as the test system, `LGKIYPFYSILL` showed protein stability index of 0.704

With Saccharomyces cerevisiae as the test system, `TPTRRIIPHTHP` showed protein stability index of 0.685

With Saccharomyces cerevisiae as the test system, `PVCELCLITLRG` showed protein stability index of 0.59

With Saccharomyces cerevisiae as the test system, `ITVFRAEVRTKK` showed protein stability index of 0.685

With Saccharomyces cerevisiae as the test system, `PPPALPPPPRPP` showed protein stability index of 0.604

With Saccharomyces cerevisiae as the test system, `VFGVWVVVGCVG` showed protein stability index of 0.248

With Saccharomyces cerevisiae as the test system, `LFRRMWVEIFYV` showed protein stability index of 0.253

With Saccharomyces cerevisiae as the test system, `APSSPRSSTPRP` showed protein stability index of 0.763

With Saccharomyces cerevisiae as the test system, `RAWELPRLRGRE` showed protein stability index of 0.668

With Saccharomyces cerevisiae as the test system, `AGRGGSPRFVGR` showed protein stability index of 0.657

With Saccharomyces cerevisiae as the test system, `VCLLVSVCLLWL` showed protein stability index of 0.252

With Saccharomyces cerevisiae as the test system, `RVFVRFGSCAGG` showed protein stability index of 0.679

With Saccharomyces cerevisiae as the test system, `RTKIKKKIMKNI` showed protein stability index of 0.515
